Listed here are molecules together with their documented z-score.
Assay: basal MM1S mitochondrial membrane potential changes, profiling panel, cell-based, JC-1 fluorescence, 24 h, 100 nL compound (AID 1170); note: test concentration not given here
Conditions: higher = more signal
QUANTITY KIND: z-score

[[record]]
molecule = "C=CCNC(=O)[C@H]1[C@@H]2C(=O)O[C@@H](c3ccccc3)[C@@H](c3ccccc3)N2[C@@H](c2ccc(OCCO)cc2)[C@]12C(=O)Nc1ccc(C#CCCO)cc12"
reported = 0.128

[[record]]
molecule = "C=C(/C(=C/C[C@H](OC(C)=O)c1cccc(OCCO)c1)c1cc(C(=O)OC)ccc1OC)C(C)C"
reported = 0.343

[[record]]
molecule = "CCOC(=O)C[C@H]1[C@H](OC(=O)c2ccc(C(=O)c3ccccc3)cc2)[C@@H](NC(=O)Cc2ccc(OC)cc2)c2cc(OCCCO)ccc2N1C(=O)Cc1ccc(OC)cc1"
reported = 0.356

[[record]]
molecule = "C/C=C/[C@@H](CCn1cc(CCO[Si](C(C)C)(C(C)C)C(C)C)nn1)[Si](C)(C)c1ccc(OC)cc1"
reported = 2.03

[[record]]
molecule = "COC(=O)C(CC#Cc1ccc2c(c1)[C@]1(C(=O)N2)[C@H](c2ccccc2OCCO)N2[C@H](c3ccccc3)[C@H](c3ccccc3)OC(=O)[C@H]2[C@@H]1C(=O)N1CCCCCCC1)C(=O)OC"
reported = -1.32

[[record]]
molecule = "CCCCCCC#C[Si](O[C@H](c1ccccc1)c1cn(Cc2ccccc2)nn1)(C(C)C)C(C)C"
reported = -0.198

[[record]]
molecule = "C=CCC(OC(C)=O)[C@@H]1[C@@H](N(Cc2cc3ccccc3o2)C(=O)c2ccc(-c3ccccc3)cc2)c2cc(OCCCO)ccc2N1C(=O)c1ccc(-c2ccccc2)cc1 (some centres undefined)"
reported = 0.511

[[record]]
molecule = "COCCOC(=O)N1C(=O)[C@@]2(c3ccccc31)[C@H](C(=O)Nc1nc3ccccc3s1)[C@H]1C(=O)O[C@H](c3ccccc3)[C@H](c3ccccc3)N1[C@@H]2c1ccc(O)cc1"
reported = -1.87

[[record]]
molecule = "CC(=O)OC(C/C=C\\B1OC(C)(C)C(C)(C)O1)c1ccccc1 (centres undefined)"
reported = 0.962

[[record]]
molecule = "C=CCN1C(=O)[C@@]2(O[C@@H](CCO)[C@H]([Si](C)(C)c3ccc(OC)cc3)[C@H]2C)c2cc(N(C=O)c3ccccc3)ccc21"
reported = -2.14

[[record]]
molecule = "[N-]=[N+]=NCc1ccccc1C[C@]1(C(=O)NCc2ccccc2)N=C(c2ccc(OCCCO)cc2)O[C@H]1c1ccccc1"
reported = -1.6

[[record]]
molecule = "CC(C)C(=C=CC[C@H](O)c1ccc(OCCO)cc1)C[C@H](O)COCc1ccccc1"
reported = -1.36

[[record]]
molecule = "C=CCNC(=O)[C@@H]1[C@H]2C(=O)O[C@H](c3ccccc3)[C@H](c3ccccc3)N2[C@H](c2ccc(O)cc2)[C@@]12C(=O)Nc1ccccc12"
reported = 1.31

[[record]]
molecule = "CC(C)(C)OC(=O)CC[C@]1(C(=O)NCc2ccccc2)COC(c2ccc(OCCCO)cc2)=N1"
reported = 0.931

